Test system: SNB-19 CNS
measurement.description: NCI tumour cell line growth inhibition, 48 h
measured.attribute: TGI

Consider the following illustrative entries.
CCOC(=O)c1cn(-c2ccc(Cl)cc2)c(=O)n2c1nc1ccccc12 : > 100 µM
COc1c/c(=C2/C=c3ccccc3=N2)[nH]/c1=C/c1[nH]c(C)cc1C : > 100 µM
N#CC(C#N)=C(N)/C(C#N)=C\c1ccnc2ccccc12 : > 100 µM
CC(C)n1c(=O)n(-c2ccccc2)n(C(C)(C)C)c1=O : > 100 µM
CN1CC(c2ccccc2)N(CCCCN2CC(c3ccccc3)N(C)CC2c2ccccc2)CC1c1ccccc1 (stereo unspecified) : > 100 µM

Please state, for each entry, its recorded TGI.
1. NC(=O)COc1ccccc1
2. COc1ccc(NC2Oc3cc4c(cc3C(c3cc(OC)c(O)c(OC)c3)C2C)OCO4)cc1 (stereo unspecified)
3. COc1cc(/C=C/c2cc(C(F)(F)F)[nH]c(=O)n2)ccc1OCc1ccccc1F

Response:
["> 100 µM", "> 100 µM", "30.1 µM"]

// batch mode: one TGI value per listed entry
1. Nc1nc2c(ncn2C2C=CC(CO)O2)c(=O)[nH]1 (stereo unspecified)
2. Cc1ccc(S(=O)(=O)N2CCN(CCN(C)CCN3CCN(S(=O)(=O)c4ccc(C)cc4)CC3)CC2)cc1
3. COc1ccc(-c2c(C3=NCCN3)nnn2-c2ccccc2)cc1

Response:
1: > 100 µM; 2: 69.4 µM; 3: > 100 µM
